Data provenance is patent US20240076386A1.

Biological target: T1, cynomolgus monkey E-selectin extracellular domain with 10 His purification tail (cynomolgus monkey, UniProt P16581 22-554 (human entry))
T1 construct: also called cynomolgus E-selectin; truncated cynomolgus monkey E-selectin
T1 chain: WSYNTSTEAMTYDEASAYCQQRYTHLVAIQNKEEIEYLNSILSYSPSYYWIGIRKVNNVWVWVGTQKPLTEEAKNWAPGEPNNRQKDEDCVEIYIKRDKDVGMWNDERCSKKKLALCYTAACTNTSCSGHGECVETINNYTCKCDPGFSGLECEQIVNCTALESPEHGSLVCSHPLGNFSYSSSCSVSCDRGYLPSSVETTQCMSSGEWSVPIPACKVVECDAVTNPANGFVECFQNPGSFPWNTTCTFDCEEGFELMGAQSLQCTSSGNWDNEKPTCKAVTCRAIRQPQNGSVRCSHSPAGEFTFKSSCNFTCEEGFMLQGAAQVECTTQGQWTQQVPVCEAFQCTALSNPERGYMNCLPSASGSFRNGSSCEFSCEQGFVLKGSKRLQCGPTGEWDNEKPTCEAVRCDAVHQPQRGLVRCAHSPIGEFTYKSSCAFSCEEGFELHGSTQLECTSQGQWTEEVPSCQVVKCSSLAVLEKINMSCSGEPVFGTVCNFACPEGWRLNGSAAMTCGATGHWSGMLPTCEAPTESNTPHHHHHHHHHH
Test: SPR, antibody captured, E-selectin analyte
pKd: −log10 of the molar value.
quantityMeasured: pKd

1) anti-E-selectin antibody 0159 chimera (antibody, human IgG1, kappa, V domains shown, rat VH/VL on effector-null human IgG1 and human kappa) VH: EVQLQQSGAELGKPGTSVKLSCKVSGYNIRSTYMHWVSQRPGKGLEWIGRIDPANGNTIYAEKFKRKATLTADTSSNTAYMQLSQLKSDDRAIYFCAMEVRVSFEYWGQGVMVTVSS VL: DIQMTQSPSFLSASVGDRVTINCKASQNINKYLDWYQQKLGEGPKLLIYYTNNLHTGIPSRFSGSGSGTDFTLTISSLQPEDVATYFCLQHDSGYTFGAGTKLELKR: 6.61
2) anti-E-selectin antibody 0180 chimera (antibody, human IgG1, kappa, V domains shown, rat VH/VL on effector-null human IgG1 and human kappa) VH: EVQLQQSGAELGKPGTSVKLSCKVSGYKIRSSYMHWVNQRPGKGLEWIGRIDPANGNTIYGDKFKSKATLTSDTSSNTAYIQLSQLKSDDTAIYFCAIDIGTTFDYWGQGVMVTVSS VL: DIQMTQSPSFLSASVGDRVTINCKASQHINRYLNWYQQKLGEAPKLLIYDANNLQTGIPSRFSGSGSGTDFTLTISSLQPEDVATYFCLQHNSWPNTFGAGTKLELKR: 5.50
3) anti-E-selectin antibody 0039 chimera (antibody, human IgG1, kappa, V domains shown, rat VH/VL on effector-null human IgG1 and human kappa) VH: QVQLKETGPGLVQPTQTLSITCTVSGFSLTGYYMQWVRQTPGKGLEWMGFIRSSGSTEYNSEFKSRLSISRDTSKNQVFLKMNSLKTEDTGVYYCARCPYKYSSFVYVGVMDAWGQGAPVTVSS VL: EIVMTQSPTSMSTSIGERVTLNCKASQTVGINVDWYQQTPGQPPKLLIYGASNRHTGVPDRFTGSGFGRDFTLTISNVEAEDLAVYCCLQYGSIPHTFGPGTKLELKR: 7.34
